System: OCI-AML2
protocol-notes: cell viability relative to vehicle control; higher = less cytotoxic;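 note: after 48 h exposure read by CellTiter-Glo luminescence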
test-conditions: 10 µM; SRSF2 genotype: P95H/wt
Structures can show the parent of a compound that is named as a salt.
# maps each entry to its cell viability
# number only, unit % dropped from output

Some solved cases for reference:
Fill in: cell viability of COc1nccc(-c2c(-c3ccc(F)cc3)ncn2C2CCC(O)CC2)n1 (stereo not given) is ___
107

Fill in: cell viability of CCc1cc2c(cc1CC)CC(NC[C@H](O)c1ccc(O)c3[nH]c(=O)ccc13)C2 [Indacaterol Maleate] is ___
52.5

Here's the next entry for you.
Fill in: cell viability of "NCCCNCCCCNCCCN" is ___
101

* * *

Test system: MOLM14
protocol-notes: cell viability relative to vehicle control; higher = less cytotoxic
test-conditions: 10 µM; SRSF2 genotype: SRSF2 P95H/wt
Counter-ions that a name gives are not always drawn.
Please assign Criterion not met whenever cell viability is at or above 90%, and Criterion met whenever it is below.

Look over these answered cases.
For this molecule, is cell viability lower than 90%? CC(CN(C)C)Oc1nc(Nc2cc3cccc(Cl)c3cn2)cnc1C#N (stereo not drawn)
Criterion met

For this molecule, is cell viability lower than 90%? CC/C(=C(\c1ccc(O)cc1)c1ccc(OCCNC)cc1)c1ccccc1 [Endoxifen HCl]
Criterion met

For this molecule, is cell viability lower than 90%? O=C[C@H](O)[C@@H](O)[C@H](O[C@H]1O[C@H](CO)[C@@H](O[C@H]2O[C@H](CO)[C@@H](O[C@H]3O[C@H](CO)[C@@H](O[C@H]4O[C@H](CO)[C@@H](O)[C@H](O)[C@H]4O)[C@H](O)[C@H]3O)[C@H](O)[C@H]2O)[C@H](O)[C@H]1O)[C@H](O)CO [Maltopentaose]
Criterion not met

More entries:
For this molecule, is cell viability lower than 90%? CCC[C@H](NC(=O)/C(C#N)=C/c1cccc(Br)n1)c1ccccc1 [Degrasyn (WP1130)]
Criterion met

For this molecule, is cell viability lower than 90%? "Cc1cc(=O)oc2c(C=O)c(O)ccc12"
Criterion not met

For this molecule, is cell viability lower than 90%? "O=C(O)c1ccc2c3c1cccc3c(=O)n1c3ccccc3nc21"
Criterion not met

For this molecule, is cell viability lower than 90%? OC[C@@H](O)[C@@H](O)[C@H](O)[C@@H](O)CO [Sorbitol (Glucitol)]
Criterion not met

For this molecule, is cell viability lower than 90%? Cc1[nH]cnc1CN1CCc2c(c3ccccc3n2C)C1=O [Alosetron Hydrochloride]
Criterion not met

* * *

Tested on: MARIMO
protocol-notes: cell viability relative to vehicle control; higher = less cytotoxic
test-conditions: 10 µM; SRSF2 genotype: SRSF2 wt/wt
Counter-ions that a name gives are not always drawn.
# maps each entry to its cell viability
# output: number + unit

Some solved cases for reference:
I'm curious: which cell viability was measured for OCC(O)C(O)CO (stereo not given) tested on MARIMO?
106%

I'm curious: which cell viability was measured for "COc1ccc(-c2nc(N3CCOCC3)c3sc(CN(C)c4ncc(C(=O)NO)cn4)cc3n2)cn1" tested on MARIMO?
2.78%

I'm curious: which cell viability was measured for "CCOC(=O)c1ccc(C#Cc2ccc3c(c2)C(C)(C)CCS3)nc1" tested on MARIMO?
40.8%

More entries:
I'm curious: which cell viability was measured for "CCc1nc(C(N)=O)c(Nc2ccc(N3CCC(N4CCN(C)CC4)CC3)c(OC)c2)nc1NC1CCOCC1" tested on MARIMO?
40.6%

I'm curious: which cell viability was measured for CC(=O)/N=c1/sc(S(N)(=O)=O)nn1C [Methazolamide] tested on MARIMO?
111%

I'm curious: which cell viability was measured for COc1cccc2c1C(=O)c1c(O)c3c(c(O)c1C2=O)CC(O)(C(=O)CO)CC3OC1CC(N)C(O)C(C)O1 (stereo not given) [Doxorubicin (Adriamycin) HCl] tested on MARIMO?
2.71%

I'm curious: which cell viability was measured for COC(=O)c1ccccc1O [Methyl salicylate] tested on MARIMO?
104%

I'm curious: which cell viability was measured for COc1ccnc(C[S+]([O-])c2nc3cc(-n4cccc4)ccc3[nH]2)c1C (stereo not given) tested on MARIMO?
105%

I'm curious: which cell viability was measured for "Cc1ccc(S(=O)(=O)c2ccc([N+](=O)[O-])o2)cc1" tested on MARIMO?
0.25%
